The origin of these recorded values is the supplement of paper PMC12645437.

Target: T1, CRBN, Q96SW2;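 further: pooled lentiviral library of zinc finger degron-EGFP fusions in mCherry-positive Jurkat cells, FACS-sorted after compound exposure, with degron abundance counted by next-generation sequencing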
T1 chain: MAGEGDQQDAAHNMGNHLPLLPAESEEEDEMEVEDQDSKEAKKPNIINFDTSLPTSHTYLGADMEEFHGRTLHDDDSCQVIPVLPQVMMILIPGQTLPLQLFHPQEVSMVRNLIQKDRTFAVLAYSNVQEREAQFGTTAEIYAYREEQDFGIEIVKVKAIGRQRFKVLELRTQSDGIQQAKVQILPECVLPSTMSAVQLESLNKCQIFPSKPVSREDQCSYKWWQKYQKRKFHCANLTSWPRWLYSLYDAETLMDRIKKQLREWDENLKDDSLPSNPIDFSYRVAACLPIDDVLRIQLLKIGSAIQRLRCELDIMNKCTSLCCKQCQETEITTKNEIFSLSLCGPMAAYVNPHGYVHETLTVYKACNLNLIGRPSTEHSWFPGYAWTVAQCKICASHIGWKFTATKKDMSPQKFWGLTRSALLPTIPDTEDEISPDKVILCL
Assay: log2 fold change of degron read counts, EGFP-low vs EGFP+ sorted cells (limma voom), compound-induced degradation; higher = more compound-induced degradation of the degron-EGFP fusion; degrons are variants of IKZF1/3 zinc finger 2; compound dose not given here
Settings: Jurkat; 18 h; compound: compound 22 (5-morpholino-thalidomide)
In all, about 8,300 sequences were measured (“log2 fold change of degron read counts, EGFP-low vs EGFP+ sorted cells (limma voom), compound-induced degradation”: median about -1.1, highest 2% from about 3.2 on). For the sample, the highest values were picked, then their nearest neighbours and some sequences at random.
METRIC: log2 fold change of degron read counts

[[record]]
sequence_text = "LCCPICGFACTQKGNLLRHIKL [46L_47C_49P_50I_52G_53F_54A_55C_67L_, Q9UKT9]"
metric = "log2 fold change of degron read counts"
reading = 2.68

[[record]]
sequence_text = "LTCPICGFACTQKGNLLRHIKL [46L_47T_49P_50I_52G_53F_54A_55C_67L_, Q9UKT9]"
metric = "log2 fold change of degron read counts"
reading = 3.12

[[record]]
sequence_text = "LRCPICGFACTQKGNLLRHIKL [46L_47R_49P_50I_52G_53F_54A_55C_67L_, Q9UKT9]"
metric = "log2 fold change of degron read counts"
reading = 2.14

[[record]]
sequence_text = "LACPICGFACTQKGNLLRHIKL [46L_47A_49P_50I_52G_53F_54A_55C_67L_, Q9UKT9]"
metric = "log2 fold change of degron read counts"
reading = 2.95

[[record]]
sequence_text = "LVCPICGFACTQKGNLLRHIKL [46L_47V_49P_50I_52G_53F_54A_55C_67L_, Q9UKT9]"
metric = "log2 fold change of degron read counts"
reading = 3.25

[[record]]
sequence_text = "LFCPICGFACTQKGNLLRHIKL [46L_47F_49P_50I_52G_53F_54A_55C_67L_, Q9UKT9]"
metric = "log2 fold change of degron read counts"
reading = 3.52

[[record]]
sequence_text = "LDCPICGFACTQKGNLLRHIKL [46L_47D_49P_50I_52G_53F_54A_55C_67L_, Q9UKT9]"
metric = "log2 fold change of degron read counts"
reading = -0.371

